settings: in n-butanol, 300.65 K
outcome-measure: solubility (mole fraction)
In your answer, state the number alone without any accompanying words.

Ask: Let me know recorded solubility (mole fraction) for Nc1ccc([N+](=O)[O-])cc1[N+](=O)[O-] , thanks.
Result: 0.00365

###

conditions: in ethanol, 288.15 K
outcome-measure: solubility (mole fraction)

Ask: Give reported solubility (mole fraction) value for Nc1ccc([N+](=O)[O-])cc1[N+](=O)[O-]
Result: 0.00193

###

conditions: in methanol, 283.15 K
outcome-measure: solubility (mole fraction)
A bare number is all that is needed in reply.

Ask: Look up and report measured solubility (mole fraction) for this entry: Nc1ccc([N+](=O)[O-])cc1[N+](=O)[O-]
Result: 0.00156

###

conditions: in ethanol, 285.65 K
outcome-measure: solubility (mole fraction)
Please give the numeric answer without any surrounding text.

Ask: Quick one: give measured solubility (mole fraction) for Nc1ccc([N+](=O)[O-])cc1[N+](=O)[O-]
Result: 0.00173

###

details: in acetonitrile, 285.65 K
outcome-measure: solubility (mole fraction)
Number only, please.

Ask: Return solubility (mole fraction) (reported value) for this molecule: Nc1ccc([N+](=O)[O-])cc1[N+](=O)[O-]
Result: 0.0098

###

settings: in n-butanol, 310.65 K
outcome-measure: solubility (mole fraction)
Give only the figure.

Ask: Give a short answer stating reported solubility (mole fraction) for Nc1ccc([N+](=O)[O-])cc1[N+](=O)[O-] .
Result: 0.00543

###

settings: in methanol, 285.65 K
outcome-measure: solubility (mole fraction)
The response must contain the number and no unit.

Ask: Find the measured solubility (mole fraction) of Nc1ccc([N+](=O)[O-])cc1[N+](=O)[O-] and report it.
Result: 0.00173

###

conditions: in n-propanol, 303.15 K
outcome-measure: solubility (mole fraction)
Answer using only a numeral; do not append any unit.

Ask: Assign solubility (mole fraction) to the following record: Nc1ccc([N+](=O)[O-])cc1[N+](=O)[O-]
Result: 0.00287

###

details: in acetonitrile, 290.65 K
outcome-measure: solubility (mole fraction)
The response must contain the number and no unit.

Ask: Supply reported solubility (mole fraction) belonging to this compound: Nc1ccc([N+](=O)[O-])cc1[N+](=O)[O-]
Result: 0.0118

###

settings: in toluene, 310.65 K
outcome-measure: solubility (mole fraction)
Just the number, please.

Ask: Give the value of solubility (mole fraction) reported for the following: Nc1ccc([N+](=O)[O-])cc1[N+](=O)[O-]
Result: 0.00158

###

settings: in n-butanol, 288.15 K
outcome-measure: solubility (mole fraction)
Response field accepts a number only; no unit should be typed.

Ask: Write down solubility (mole fraction) measured for item Nc1ccc([N+](=O)[O-])cc1[N+](=O)[O-]
Result: 0.00216

###

conditions: in ethyl acetate, 310.65 K
outcome-measure: solubility (mole fraction)
Field format: numeric only.

Ask: For the molecule Nc1ccc([N+](=O)[O-])cc1[N+](=O)[O-] , report solubility (mole fraction).
Result: 0.0324

###

conditions: in isopropanol, 310.65 K
outcome-measure: solubility (mole fraction)
Give the figure only, with no unit attached.

Ask: Name the recorded solubility (mole fraction) of the compound listed here: Nc1ccc([N+](=O)[O-])cc1[N+](=O)[O-]
Result: 0.00383

###

settings: in isopropanol, 303.15 K
outcome-measure: solubility (mole fraction)
Number only, please.

Ask: Provide one value: measured solubility (mole fraction) of Nc1ccc([N+](=O)[O-])cc1[N+](=O)[O-]
Result: 0.00281

###

conditions: in methanol, 293.15 K
outcome-measure: solubility (mole fraction)
Reply: number alone, nothing else.

Ask: Using the record for Nc1ccc([N+](=O)[O-])cc1[N+](=O)[O-] , state its measured solubility (mole fraction).
Result: 0.00232

###

conditions: in ethyl acetate, 315.65 K
outcome-measure: solubility (mole fraction)
Give a plain numeric answer without units written out.

Ask: Annotate the compound Nc1ccc([N+](=O)[O-])cc1[N+](=O)[O-] with its measured solubility (mole fraction).
Result: 0.0374

###

details: in acetonitrile, 305.65 K
outcome-measure: solubility (mole fraction)

Ask: Answer with the recorded solubility (mole fraction) of Nc1ccc([N+](=O)[O-])cc1[N+](=O)[O-] only.
Result: 0.0188

###

conditions: in n-butanol, 318.15 K
outcome-measure: solubility (mole fraction)
Give a plain numeric answer without units written out.

Ask: Return value of solubility (mole fraction) for input Nc1ccc([N+](=O)[O-])cc1[N+](=O)[O-] , no commentary.
Result: 0.00712

###

settings: in ethanol, 280.65 K
outcome-measure: solubility (mole fraction)
Give a plain numeric answer without units written out.

Ask: # return recorded solubility (mole fraction) for entry Nc1ccc([N+](=O)[O-])cc1[N+](=O)[O-]
Result: 0.0014

###

conditions: in toluene, 313.15 K
outcome-measure: solubility (mole fraction)
Number only, no unit.

Ask: Provide measured solubility (mole fraction) value, entry: Nc1ccc([N+](=O)[O-])cc1[N+](=O)[O-]
Result: 0.00175

###

settings: in isopropanol, 308.15 K
outcome-measure: solubility (mole fraction)
// return a plain number; no unit text

Ask: // fetch solubility (mole fraction) given entry Nc1ccc([N+](=O)[O-])cc1[N+](=O)[O-]
Result: 0.00346

###

conditions: in n-butanol, 293.15 K
outcome-measure: solubility (mole fraction)
API doc: respond with a numeric literal and nothing else, no unit.

Ask: Retrieve solubility (mole fraction) measured for Nc1ccc([N+](=O)[O-])cc1[N+](=O)[O-] and print it.
Result: 0.00271

###

conditions: in ethyl acetate, 298.15 K
outcome-measure: solubility (mole fraction)
I'd appreciate a reply containing only the number, no unit.

Ask: Recall and state the measured solubility (mole fraction) for Nc1ccc([N+](=O)[O-])cc1[N+](=O)[O-] .
Result: 0.0221

###

details: in n-propanol, 290.65 K
outcome-measure: solubility (mole fraction)
Answer with a bare number; do not write a unit.

Ask: Please report solubility (mole fraction) for the following compound: Nc1ccc([N+](=O)[O-])cc1[N+](=O)[O-]
Result: 0.0018

###

conditions: in ethanol, 295.65 K
outcome-measure: solubility (mole fraction)
Number, no unit, nothing else.

Ask: Give solubility (mole fraction) for Nc1ccc([N+](=O)[O-])cc1[N+](=O)[O-]
Result: 0.00254

###

settings: in acetone, 310.65 K
outcome-measure: solubility (mole fraction)
Form: value (number only, do not type unit).

Ask: Determine from records and report solubility (mole fraction) for Nc1ccc([N+](=O)[O-])cc1[N+](=O)[O-]
Result: 0.0682

###

settings: in acetone, 293.15 K
outcome-measure: solubility (mole fraction)

Ask: Name the recorded solubility (mole fraction) of the compound listed here: Nc1ccc([N+](=O)[O-])cc1[N+](=O)[O-]
Result: 0.0437

###

settings: in methanol, 298.15 K
outcome-measure: solubility (mole fraction)

Ask: Return solubility (mole fraction) for the following compound: Nc1ccc([N+](=O)[O-])cc1[N+](=O)[O-]
Result: 0.00276

###

conditions: in methanol, 308.15 K
outcome-measure: solubility (mole fraction)
The answer should be written as a number, with no unit following it.

Ask: Supply recorded solubility (mole fraction) for Nc1ccc([N+](=O)[O-])cc1[N+](=O)[O-] here.
Result: 0.00386

###

conditions: in acetonitrile, 315.65 K
outcome-measure: solubility (mole fraction)

Ask: Quickly give me recorded solubility (mole fraction) for Nc1ccc([N+](=O)[O-])cc1[N+](=O)[O-]
Result: 0.0247

###

details: in n-propanol, 318.15 K
outcome-measure: solubility (mole fraction)
Lab note: jot down the number only; don't add units.

Ask: Specify measured solubility (mole fraction) for Nc1ccc([N+](=O)[O-])cc1[N+](=O)[O-] .
Result: 0.00493

###

conditions: in toluene, 285.65 K
outcome-measure: solubility (mole fraction)
// response body must contain only the number

Ask: Identify the reported solubility (mole fraction) for the following entry. Nc1ccc([N+](=O)[O-])cc1[N+](=O)[O-]
Result: 0.000511

###

settings: in toluene, 290.65 K
outcome-measure: solubility (mole fraction)
Write the number on its own, no unit after it.

Ask: Name the recorded solubility (mole fraction) of the compound listed here: Nc1ccc([N+](=O)[O-])cc1[N+](=O)[O-]
Result: 0.000642

###

settings: in toluene, 280.65 K
outcome-measure: solubility (mole fraction)
Respond with the number and no other words.

Ask: Quote solubility (mole fraction) reported for Nc1ccc([N+](=O)[O-])cc1[N+](=O)[O-] please.
Result: 0.000383

###

conditions: in methanol, 303.15 K
outcome-measure: solubility (mole fraction)
Respond using a number only.

Ask: Note down solubility (mole fraction) recorded for Nc1ccc([N+](=O)[O-])cc1[N+](=O)[O-]
Result: 0.00327

###

conditions: in ethyl acetate, 278.15 K
outcome-measure: solubility (mole fraction)
The answer should be written as a number, with no unit following it.

Ask: Answer with reported solubility (mole fraction) of Nc1ccc([N+](=O)[O-])cc1[N+](=O)[O-]
Result: 0.0116
